EXPERIMENTAL PROTOCOL: Cytotoxicity against human MRC5 cells assessed as cell viability at 100 uM measured after 48 hrs by WST-1 assay relative to control
Assay type: cell-based
ASSAY CONTEXT: read-out: Activity
MEASUREMENT KIND: viability at 48 h, 100 µM (%)
Enter your answer as a number in %; do not include the unit.

The compound identified as OCCN1CCN(CC(O)COc2cccc3ccccc23)CC1 (stereo not given) registered its viability at 48 h, 100 µM at 78

Note to self: viability at 48 h, 100 µM recorded for COc1cccc(OC)c1OCC(O)CN1CCN(CCO)CC1 (stereo not given) was 115

Notebook: Cc1ccc(OCC(O)CN2CCN(CCO)CC2)cc1 (stereo not given) , viability at 48 h, 100 µM read as 100

Measured viability at 48 h, 100 µM of Cc1ccc(C(C)C)c(OCC(O)CN2CCN(CCO)CC2)c1 (stereo not given) : 90

// viability at 48 h, 100 µM lookup, compound = COc1ccccc1OCC(O)CN1CCN(CCO)CC1 (stereo not given) , result: 109

Measured viability at 48 h, 100 µM, COc1cc([N+](=O)[O-])ccc1OCC(O)CN1CCN(CCO)CC1 (stereo not given) : 97

Sample C=CCc1ccc(OCC(O)CN2CCN(CCO)CC2)c(OC)c1 (stereo not given) ; viability at 48 h, 100 µM observed: 103

Measured viability at 48 h, 100 µM of OCCN1CCN(CC(O)COc2ccc3ccccc3c2)CC1 (stereo not given) : 98

Lab book: viability at 48 h, 100 µM of Cc1ccccc1OCC(O)CN1CCN(CCO)CC1 (stereo not given) noted as 104

So, OCCN1CCN(CC(O)COc2ccccc2)CC1 (stereo not given) ? Its viability at 48 h, 100 µM was 101

* * *

Provide the recorded Activity for the entries that follow.
System: Mus musculus
EXPERIMENTAL PROTOCOL: Radioprotective activity in C57Bl/6 mouse assessed as average body weight at 100 mg/kg, ip administered 5 min prior to gamma-irradation at 8.5 Gy and measured after 30 days
Type: functional
Entry rule: numbers only, all in g.

molecule C=CCc1ccc(OCC(O)CN2CCN(CCO)CC2)c(OC)c1 (centres undefined) , Activity observed: 27.3

Value of Activity reported for the molecule COc1cccc(OC)c1OCC(O)CN1CCN(CCO)CC1 (centres undefined) is 27.7

Sample COc1ccccc1OCC(O)CN1CCN(CCO)CC1 (centres undefined) ; Activity observed: 27.6

The measured Activity associated with COc1cc([N+](=O)[O-])ccc1OCC(O)CN1CCN(CCO)CC1 (centres undefined) reads 26.5

* * *

Tested on: HeLa
EXPERIMENTAL PROTOCOL: Cytotoxicity against human HeLa cells assessed as cell viability at 10 uM measured after 48 hrs by WST-1 assay relative to control
Type: functional
ASSAY CONTEXT: read-out: Activity
MEASUREMENT KIND: viability at 10 µM (%)
Give the value in % but do not write % after it.

viability at 10 µM measured on COc1cc([N+](=O)[O-])ccc1OCC(O)CN1CCN(CCO)CC1 (stereo unspecified) = 101

Looking up OCCN1CCN(CC(O)COc2ccc3ccccc3c2)CC1 (stereo unspecified) , I see its viability at 10 µM listed as 109

Quick note, viability at 10 µM for Cc1ccc(C(C)C)c(OCC(O)CN2CCN(CCO)CC2)c1 (stereo unspecified) landed at 105

Given item Cc1ccccc1OCC(O)CN1CCN(CCO)CC1 (stereo unspecified) , the value recorded as its viability at 10 µM is 102

Recorded viability at 10 µM (compound Cc1ccc(OCC(O)CN2CCN(CCO)CC2)cc1 (stereo unspecified) ): 100

Sample OCCN1CCN(CC(O)COc2cccc3ccccc23)CC1 (stereo unspecified) ; viability at 10 µM observed: 99

* * *

EXPERIMENTAL PROTOCOL: Cytotoxicity against human MRC5 cells assessed as cell viability at 10 uM measured after 48 hrs by WST-1 assay relative to control
Format: cell-based
ASSAY CONTEXT: read-out: Activity
MEASUREMENT KIND: viability at 48 h, 10 µM (%)
Report only the number, with the unit % understood.

For this compound ( OCCN1CCN(CC(O)COc2cccc3ccccc23)CC1 (centres undefined) ), measured viability at 48 h, 10 µM is 102

viability at 48 h, 10 µM reading for OCCN1CCN(CC(O)COc2ccc3ccccc3c2)CC1 (centres undefined) : 103

Recorded viability at 48 h, 10 µM (compound C=CCc1ccc(OCC(O)CN2CCN(CCO)CC2)c(OC)c1 (centres undefined) ): 94

According to the records, this compound Cc1ccc(C(C)C)c(OCC(O)CN2CCN(CCO)CC2)c1 (centres undefined) displays viability at 48 h, 10 µM of 102

Recorded result, COc1cc([N+](=O)[O-])ccc1OCC(O)CN1CCN(CCO)CC1 (centres undefined) , viability at 48 h, 10 µM: 97

The compound identified as COc1ccccc1OCC(O)CN1CCN(CCO)CC1 (centres undefined) registered its viability at 48 h, 10 µM at 90

// Cc1ccccc1OCC(O)CN1CCN(CCO)CC1 (centres undefined) : viability at 48 h, 10 µM value = 97

In plain terms, OCCN1CCN(CC(O)COc2ccccc2)CC1 (centres undefined) has a documented viability at 48 h, 10 µM of 101

Kindly note the recorded viability at 48 h, 10 µM for Cc1ccc(OCC(O)CN2CCN(CCO)CC2)cc1 (centres undefined) , which is 112

* * *

For each entry below, report its viability at 10 µM value.
Tested on: HeLa
EXPERIMENTAL PROTOCOL: Cytotoxicity against human HeLa cells assessed as cell viability at 10 uM measured after 48 hrs by WST-1 assay relative to control
Assay type: functional
ASSAY CONTEXT: read-out: Activity
Provide only the numeric value, understood in %.

Simply: OCCN1CCN(CC(O)COc2ccccc2)CC1 (centres undefined) , HeLa, viability at 10 µM = 95

Entry COc1cccc(OC)c1OCC(O)CN1CCN(CCO)CC1 (centres undefined) under HeLa had viability at 10 µM of 101

Simply: C=CCc1ccc(OCC(O)CN2CCN(CCO)CC2)c(OC)c1 (centres undefined) , HeLa, viability at 10 µM = 100

Measured viability at 10 µM for this entry COc1ccccc1OCC(O)CN1CCN(CCO)CC1 (centres undefined) on HeLa: 93

Origin of values: ChEMBL document CHEMBL4706495
